- Target system: CDK6/CyclinD3 (Homo sapiens, UniProt Q00534)
- Sequence (Q00534 whole entry): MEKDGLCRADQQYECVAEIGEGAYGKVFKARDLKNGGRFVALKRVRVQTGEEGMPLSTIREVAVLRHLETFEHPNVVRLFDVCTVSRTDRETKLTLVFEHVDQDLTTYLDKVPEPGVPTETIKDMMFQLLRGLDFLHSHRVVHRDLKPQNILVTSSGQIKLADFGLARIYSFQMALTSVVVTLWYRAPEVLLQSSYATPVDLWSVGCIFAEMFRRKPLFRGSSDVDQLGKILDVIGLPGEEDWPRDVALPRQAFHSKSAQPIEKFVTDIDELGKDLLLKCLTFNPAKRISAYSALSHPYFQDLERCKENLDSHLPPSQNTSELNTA
- Sequence (P30281 whole entry partner): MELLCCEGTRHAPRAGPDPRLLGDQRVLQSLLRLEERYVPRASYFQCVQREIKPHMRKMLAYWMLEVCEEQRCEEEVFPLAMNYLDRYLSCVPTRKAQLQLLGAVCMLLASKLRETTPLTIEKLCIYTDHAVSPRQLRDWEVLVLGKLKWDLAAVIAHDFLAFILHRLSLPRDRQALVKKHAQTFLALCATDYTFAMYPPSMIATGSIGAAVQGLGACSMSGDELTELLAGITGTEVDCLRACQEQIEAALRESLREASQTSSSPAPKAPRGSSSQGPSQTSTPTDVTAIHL
- Assay notes: CDK6/CyclinD3 kinase inhibitory activity (Caliper mobility shift)
- Experimental context: enzyme 15 nM, ATP 800 μM, 28° C. 30 min; read-out: CDK6/Cyclin D3 IC50
pIC50: −log10 of the molar value.
Measured pIC50 accompanies every entry in the list below.

As a guide, the following entries are already answered.
Cc1nc2c(F)cc(-c3nc(N[C@@H]4CCOC[C@H]4O)ncc3Cl)cc2cc1C(C)NC1CC1 (single isomer, unassigned) [Example 73a] : 6.00 to 7.00
Cc1nc2c(F)cc(-c3nc(N[C@@H]4CCOC[C@H]4O)ncc3F)cc2cc1C(C)NC1CC1 (single isomer, unassigned) [Example 74b] : 6.00 to 7.00
Cc1nc2c(F)cc(-c3nc(N[C@@H]4CCOC[C@H]4O)ncc3F)cc2cc1C(C)(C)O : 6.00 to 7.00
CC1(C)Cc2cnc3c(F)cc(-c4nc(N[C@@H]5CCOC[C@H]5O)ncc4C#N)cc3c2CN1 : 6.00 to 7.00
[2H]C([2H])([2H])C(O)(c1cc2cc(-c3nc(N[C@@H]4CCOC[C@H]4O)ncc3Cl)cc(F)c2nc1C)C([2H])([2H])[2H] : 6.00 to 7.00
Cc1c(C(C)NC2CC2)cnc2c(F)cc(-c3nc(N[C@@H]4CCOC[C@H]4O)ncc3F)cc12 (single isomer, unassigned) [Example 93a] : 6.00 to 7.00
[2H]c1nc2c(F)cc(-c3nc(N[C@@H]4CCOC[C@H]4O)ncc3Cl)cc2c2c1CC(C)(C)NC2 : 7.00 to 8.00
Cc1c(C(C)O)cnc2c(F)cc(-c3nc(N[C@@H]4CCOC[C@H]4O)ncc3Cl)cc12 (single isomer, unassigned) [Example 88a] : 7.00 to 8.00
CC1(C)Cc2cnc3c(F)cc(-c4ccnc(N[C@@H]5CCOC[C@H]5O)n4)cc3c2CN1 : 6.00 to 7.00
O[C@@H]1COCC[C@H]1Nc1ncc(Cl)c(-c2cc(F)c3ncc4c(c3c2)CNC2(CC2)C4)n1 : 6.00 to 7.00

Documented pIC50 of `CC(C)(O)c1cnc2c(F)cc(-c3cc(N[C@@H]4CCOC[C@H]4O)ncc3Cl)cc2c1Cl` : 6.00 to 7.00

# pIC50 (compound: `Cc1cc(C(C)(C)O)c2cc(-c3nc(N[C@@H]4CCOC[C@H]4O)ncc3Cl)ccc2n1` ) is 6.00 to 7.00

According to the records, this compound `O[C@@H]1COCC[C@H]1Nc1ncc(Cl)c(-c2cc(F)c3c(c2)N2CCNC[C@@H]2CO3)n1` displays pIC50 of 7.00 to 8.00

The compound listed as `Cc1n[nH]c2cnc3ccc(-c4nc(N[C@@H]5CCOC[C@H]5O)ncc4Cl)cc3c12` shows pIC50 equal to 6.00 to 7.00

---

- Target system: CDK6/CyclinD3 (Homo sapiens, UniProt Q00534)
- Assay notes: CDK6/CyclinD3 kinase inhibitory activity (Caliper mobility shift)
- Experimental context: enzyme 15 nM, ATP 800 μM, 28° C. 30 min; read-out: CDK6/Cyclin D3 IC50
Recorded endpoint: IC50

Recorded IC50, per entry:
[2H]c1nc2c(F)cc(-c3nc(N[C@@H]4CCOC[C@H]4O)ncc3C)cc2c2c1CC(C)(C)NC2 : 0.1 to 1 µM
[2H]c1nc(N[C@@H]2CCOC[C@H]2O)nc(-c2cc(F)c3nc([2H])c4c(c3c2)CNC2(CC2)C4)c1Cl : 0.01 to 0.1 µM
CC(NC1CC1)c1cnc2c(F)cc(-c3nc(N[C@@H]4CCOC[C@H]4O)ncc3Cl)cc2c1Cl (single isomer, unassigned) [Example 90b] : 0.1 to 1 µM
CC(O)c1cnc2c(F)cc(-c3nc(N[C@@H]4CCOC[C@H]4O)ncc3Cl)cc2c1Cl (single isomer, unassigned) [Example 40b] : 0.1 to 1 µM

`CC(C)(O)c1cnc2c(F)cc(-c3nc(N[C@@H]4CCOC[C@H]4O)ncc3Cl)cc2c1Cl` has a reported IC50 of 0.01 to 0.1 µM
